# System: Mycobacterium tuberculosis
# Assay explanation: MMV: Screen against Mtb, single point, non replicating, at 25uM
# Format: functional

# Molecule, inhibition at 25 µM [%]
data = [
    ("CCn1c(SCC(=O)Nc2cc(C(F)(F)F)ccc2Cl)nc2ccccc2c1=O", 16),
    ("COc1ccc(-c2c(C)nn3c(N)c(C#N)cnc23)cc1OC", 11.5),
    ("CC(C)CNC(=O)c1c(N)n(CCc2ccccc2F)c2nc3ccccc3nc12", 2.78),
    ("Cc1ccc(C)c(Cn2c(N3CCC(C(=O)NCc4cccs4)CC3)nc3ccccc32)c1", 10.4),
    ("Cc1[nH]c(-c2ccc(F)cc2)cc1C(=O)NC1CCN(Cc2ccccc2)CC1", 4),
    ("CCOc1ccc(-n2cc(-c3ccccc3)c3c(SCc4cc(C)ccc4C)ncnc32)cc1", 21.9),
    ("CN(N=O)C1=C(NC2CCCCC2)C(=O)c2ccccc2C1=O", 7.53),
    ("COc1cc(C(=O)Nc2ccc(-c3nc4ccccc4[nH]3)cc2)cc(OC)c1OC", 19.1),
    ("CN1CCN(c2ncnc3c2[nH]c2ccc(Cl)cc23)CC1", 1.91),
    ("COc1ccc(NC(=O)C2c3ccccc3C(=O)N(CC(C)C)C2c2cccs2)cc1 (configuration not stated)", 3.3),
    ("COc1cccc(C2(C)Nc3ccccc3-c3nc4ccccc4n32)c1 (configuration not stated)", 8.19),
    ("CCOc1ccccc1NC(=O)CN1CCN(C(=O)c2ccco2)CC1", -0.186),
    ("Cc1sc2ncnc(Sc3nc4ccccc4[nH]3)c2c1C", 22.5),
    ("OC(CNC1CCCCC1)Cn1c2ccc(I)cc2c2cc(I)ccc21 (configuration not stated)", 10.9),
    ("O=C(NCc1ccco1)C1CCN(S(=O)(=O)c2ccc(Cl)cc2)CC1", 12.4),
    ("O=c1nc(C=Cc2ccc(Br)cc2)oc2ccccc12", -13.3),
    ("CCOc1ccc(CN2CCN(CC(O)COc3ccc(OCC(O)CN4CCN(Cc5ccc(OCC)cc5)CC4)cc3)CC2)cc1 (configuration not stated)", 17.5),
    ("COc1ccc(C2Sc3ccccc3N=C3C2=C(O)c2ccccc23)cc1 (configuration not stated)", -1.58),
    ("CCN1CCN(c2c(C(=O)c3ccccc3)cnc3cc(OC)c(OC)cc23)CC1", 1.14),
    ("CCOC(=O)c1cnc2ccc(OC)cc2c1NCc1ccccc1", 23),
    ("CC(=O)Nc1nnc(SCc2c(C)cc(C(C)(C)C)cc2C)s1", 19.7),
    ("COc1cccc(NC(=O)[C@H](C(C)C)n2c(=O)[nH]c3ccccc3c2=O)c1", 5.22),
]

---

The reader will find reported inhibition at 25 µM values listed item by item below.
# System: Mycobacterium tuberculosis
# Assay explanation: MMV: Screen against Mtb, single point, non replicating, at 25uM
# Format: functional
Outcome measure: inhibition at 25 µM (%)

# Compound, Observed value
rows = [
    ("Cc1sc(NC(=O)c2ccco2)c(C(c2cccnc2)N2CCC(Cc3ccccc3)CC2)c1C (stereo not given)", -1.7),
    ("O=C(NC(c1ccccc1)c1ccc2cccnc2c1O)c1ccccc1 (stereo not given)", 17.1),
    ("CCOc1ccc(-c2nonc2NC(=O)c2cccc(C)c2)cc1OCC", 9.24),
    ("CCc1ccc(Nc2cc(C)nc3nc(C)nn23)cc1", 9.06),
    ("O=C(Nc1ccc(-c2nc3ccccc3[nH]2)cc1)c1ccc(Cl)c(Cl)c1", 26.5),
    ("Oc1c(C(Nc2ccccn2)c2cccc(Oc3ccccc3)c2)ccc2cccnc12 (stereo not given)", 11.8),
    ("CC1CN(C(=O)c2sc3ccccc3c2Cl)CC(C)O1 (stereo not given)", 22.9),
    ("CCOC(=O)C1CCN(C(=O)CN2C(=O)c3ccccc3C2c2c[nH]c3ccccc23)CC1 (stereo not given)", 8.89),
    ("Cc1sc(NC(=O)c2ccccc2)c(C(c2cccs2)N2CCN(c3ccccc3)CC2)c1C (stereo not given)", 13),
    ("COCCNC(=O)c1ccc(OC2CCN(Cc3ccc(F)c(F)c3)CC2)c(Cl)c1", 14.1),
]
